assay: Cytotoxicity against human SH-SY5Y cells after 72 hrs by MTT assay; type: cell-based
ENDPOINT LABEL: IC50 (µM)

{"COMPOUND": "c1ccc2c(c1)CN(CCCN1c3ccccc3Sc3ccccc31)C2", "VALUE UNIT": "µM", "BOUND TYPE": "=", "RESULT NUMBER": 83.3}
{"COMPOUND": "CN(CCCN1CCc2c([nH]c3ccccc23)C1)Cc1ccccc1", "VALUE UNIT": "µM", "BOUND TYPE": "=", "RESULT NUMBER": 19.7}
{"COMPOUND": "CN(CCCN1c2ccccc2Sc2ccccc21)CCc1ccccc1", "VALUE UNIT": "µM", "BOUND TYPE": "=", "RESULT NUMBER": 8.6}
{"COMPOUND": "c1ccc(C2c3[nH]c4ccccc4c3CCN2CCCN2Cc3ccccc3C2)cc1 (configuration not stated)", "VALUE UNIT": "µM", "BOUND TYPE": "=", "RESULT NUMBER": 18.3}
{"COMPOUND": "CN(CCCN1CCc2[nH]c3ccccc3c2C1)CCc1ccccc1", "VALUE UNIT": "µM", "BOUND TYPE": "=", "RESULT NUMBER": 33.2}
{"COMPOUND": "CN(CCCN1CCc2oc3ccccc3c2C1)CCc1ccccc1", "VALUE UNIT": "µM", "BOUND TYPE": "=", "RESULT NUMBER": 25.4}
{"COMPOUND": "CN(CCCn1c(=O)oc2cc3c(cc21)C(c1ccccc1)CC3=O)Cc1ccccc1 (configuration not stated)", "VALUE UNIT": "µM", "BOUND TYPE": ">", "RESULT NUMBER": 100}

* * *

Some compounds, each annotated with its measured Ki.
target: Sigma non-opioid intracellular receptor 1 (Homo sapiens, UniProt Q99720); assay: Displacement of [3H](+)-pentazocine from human sigma 1 receptor in human Jurkat cell membranes incubated for 2 hrs by liquid scintillation counting
Sequence (Q99720 whole entry): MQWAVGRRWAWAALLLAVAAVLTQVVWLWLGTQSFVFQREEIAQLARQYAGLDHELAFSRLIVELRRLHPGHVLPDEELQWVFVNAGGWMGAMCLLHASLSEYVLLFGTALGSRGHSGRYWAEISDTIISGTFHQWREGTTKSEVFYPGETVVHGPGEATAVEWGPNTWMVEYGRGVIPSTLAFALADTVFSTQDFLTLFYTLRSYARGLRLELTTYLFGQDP

{"COMPOUND": "CN(CCCN1CCc2oc3ccccc3c2C1)CCc1ccccc1", "Ki": "0.0025 µM"}
{"COMPOUND": "CN(CCCN1c2ccccc2Sc2ccccc21)Cc1ccccc1", "Ki": "0.028 µM"}
{"COMPOUND": "CN(CCCN1c2ccccc2Oc2ccccc21)CCc1ccccc1", "Ki": "0.018 µM"}
{"COMPOUND": "c1ccc(C2c3[nH]c4ccccc4c3CCN2CCCN2Cc3ccccc3C2)cc1 (configuration not stated)", "Ki": "0.0084 µM"}
{"COMPOUND": "CN(CCCN1CCc2c([nH]c3ccccc23)C1c1ccccc1)Cc1ccccc1 (configuration not stated)", "Ki": "0.0043 µM"}
{"COMPOUND": "CN(CCCN1CCc2[nH]c3ccccc3c2C1)Cc1ccccc1", "Ki": "0.018 µM"}
{"COMPOUND": "c1ccc2c(c1)CN(CCCN1CCc3[nH]c4ccccc4c3C1)C2", "Ki": "0.072 µM"}
{"COMPOUND": "c1ccc2c(c1)CN(CCCN1c3ccccc3Sc3ccccc31)C2", "Ki": "0.012 µM"}
{"COMPOUND": "CN(CCCN1CCc2[nH]c3ccccc3c2C1)CCc1ccccc1", "Ki": "0.011 µM"}
{"COMPOUND": "CN(CCCN1CCc2c([nH]c3ccccc23)C1)CCc1ccccc1", "Ki": "0.0072 µM"}
{"COMPOUND": "c1ccc2c3c([nH]c2c1)CN(CCCN1CCCC1)CC3", "Ki": "> 0.2 µM"}
{"COMPOUND": "c1ccc2c(c1)CN(CCCN1CCc3oc4ccccc4c3C1)C2", "Ki": "0.011 µM"}
